# assay.summary: logP by HPLC-MS
measured.attribute: logP
Reply: number alone, nothing else.

Example results:
CC(=O)Nc1ccn(-c2c(F)cccc2F)n1 [intermediate (Ia-3)]; 1.33
Nc1ccn(-c2ncc(F)cc2F)n1 [intermediate (Ib-1)]; 0.81
O=C(Nc1ccn(-c2c(F)cccc2F)n1)c1ccccc1C(F)(F)F [Compound (Ia)]; 2.68
Nc1cnn(-c2c(F)cccc2F)n1 [intermediate (Ic-8)]; 1.16

*Q* Fill blank: measured logP of the compound CC(=O)NC1=NN(c2c(F)cccc2F)CC1 [intermediate (Ia-2)] is ____.
*A* 1.46

*Q* Fill blank: measured logP of the compound Nc1ccn(-c2c(F)cccc2F)n1 [intermediate (Ia-4)] is ____.
*A* 1.13

*Q* Fill blank: measured logP of the compound O=C(Nc1cnn(-c2c(F)cccc2F)n1)c1ccccc1C(F)(F)F [Compound (Ic)] is ____.
*A* 2.80
